Test: Spectrophotometric pH titrations of ligands (protonation constants, pKa)
Type: physicochemical
Conditions: aqueous solution (methanol stock diluted in water), 298 K, calculated from logβ values; * = keto–enol moiety dissociation; read-out: pKa2
Experimental: UV–visible spectra were recorded with a JASCO V-570 UV/Vis/NIR spectrophotometer at 298 K in the 250–600 nm spectral range employing quartz cells (1 cm optical path). […] The metal/ligand (M:L) solutions were obtained by adding appropriate quantities of Ga(NO3)3 as methanol solutions (5–10 mM) in order to obtain the metal-to-ligand 1:1 molar ratio (L = 50 μM and V = 25 mL). […] The quantities are obtained by performing error propagation calculation from the experimental errors onto the parameters. […]
Measure Name: pKa
Give the figure by itself; no unit, no explanation.

Below are worked cases with known answers.
| Compound Structure String | pKa |
| --- | --- |
| O=C(O)CCC(C(=O)/C=C/c1ccc(O)cc1)C(=O)/C=C/c1ccc(O)cc1 | 8.64 |
| O=C(/C=C/c1ccc(O)cc1)C(CCCN1C(=O)c2ccccc2C1=O)C(=O)/C=C/c1ccc(O)cc1 | 9.41 |
| COc1cc(/C=C/C(=O)C(CCC(=O)O)C(=O)/C=C/c2ccc(O)c(OC)c2)ccc1O | 8.37 |

Please turn your attention to the following entry.
Field pKa (entry `COc1cc(/C=C/C(=O)C(CCCN2C(=O)c3ccccc3C2=O)C(=O)/C=C/c2ccc(O)c(OC)c2)ccc1O` ) reads 9.66
